Hey, just so you know, these numbers are from patent US9045445B2.

# test system: glycine transporter-1 (GlyT-1) (Homo sapiens, UniProt P48067)
# Construct: JAR cells (ATCC#HTB-144), which endogenously express GlyT-1; host or cells: JAR human choriocarcinoma cells
# Sequence (P48067 whole entry): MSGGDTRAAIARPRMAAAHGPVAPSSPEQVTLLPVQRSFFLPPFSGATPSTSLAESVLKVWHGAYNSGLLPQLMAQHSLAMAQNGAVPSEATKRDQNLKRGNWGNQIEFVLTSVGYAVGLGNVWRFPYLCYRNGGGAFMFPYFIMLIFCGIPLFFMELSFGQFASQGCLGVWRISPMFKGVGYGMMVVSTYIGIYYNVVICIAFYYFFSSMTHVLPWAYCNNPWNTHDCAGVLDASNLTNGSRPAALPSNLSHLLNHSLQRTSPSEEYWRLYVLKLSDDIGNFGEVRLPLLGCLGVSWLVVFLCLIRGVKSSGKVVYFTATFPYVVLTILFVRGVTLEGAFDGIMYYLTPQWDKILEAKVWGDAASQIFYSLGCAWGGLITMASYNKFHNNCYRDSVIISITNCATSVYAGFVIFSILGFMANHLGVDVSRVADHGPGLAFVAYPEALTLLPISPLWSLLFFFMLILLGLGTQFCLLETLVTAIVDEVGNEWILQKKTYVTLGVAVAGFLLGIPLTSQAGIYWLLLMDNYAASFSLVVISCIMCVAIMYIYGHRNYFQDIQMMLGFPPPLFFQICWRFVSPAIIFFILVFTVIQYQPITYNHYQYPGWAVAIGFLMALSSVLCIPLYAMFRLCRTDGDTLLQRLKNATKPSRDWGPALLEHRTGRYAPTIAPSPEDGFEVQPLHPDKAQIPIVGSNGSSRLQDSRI
# method summary: [14C]glycine uptake assay in JAR cells endogenously expressing GlyT-1 (scintillation proximity)
# Assay type: cell-based
# condition label: JAR cells, [14C]glycine 5 μM, 3 hour incubation; read-out: GlyT-1 IC50
Structures can show the parent of a compound that is named as a salt.
measurement name: IC50 (nM)

- compound: "Cn1cc(S(=O)(=O)N2CCN(C3(CNC(=O)c4c(Cl)cccc4Cl)CCC(F)(F)CC3)CC2)nn1 [compound 190, Hydrochloride]"
  unit text: "nM"
  reported: 1
- compound: "CCCS(=O)(=O)N1CCN(C2(CNC(=O)c3c(F)cccc3C(F)(F)F)CCC(F)(F)CC2)CC1 [compound 149, Hydrochloride]"
  unit text: "nM"
  reported: 69

1: CCCS(=O)(=O)N1CCN(C2(CNC(=O)c3c(OC)cc(F)cc3SC)CCOCC2)CC1 [compound 122, Hydrochloride]
2: CCCS(=O)(=O)N1CCN(C2(CNC(=O)c3c(C)cc(F)cc3OC)CCCCC2)CC1 [compound 19, Hydrochloride]
Q) In the pair 1 and 2 , the larger recorded IC50 belongs to which? # answer = label of selected item
A) 1
(1: 95 nM, 2: 15 nM)

I: CCS(=O)(=O)N1CCN(C2(CNC(=O)c3c(Cl)cc(C(F)(F)F)cc3C(F)(F)F)CCC(F)(F)CC2)CC1 [compound 206, Hydrochloride]
II: CCCS(=O)(=O)N1CCN(C2(C(C)NC(=O)c3c(F)cccc3F)CCC(F)(F)CC2)CC1 (centres unmarked) [compound 196, Hydrochloride]
III: CCCS(=O)(=O)N1CCN(C2(CNC(=O)c3cccc(OC)c3)CCCCC2)CC1 [compound 29, Hydrochloride]
IV: CCCS(=O)(=O)N1CCN(C2(CNC(=O)c3ccc(OC)cc3)CCCCC2)CC1 [compound 23, Hydrochloride]
Q) Ordering criterion: IC50; begin with the maximum. List the labels in the requested order.
A) II, IV, III, I
(II: 3780 nM, IV: 1140 nM, III: 766 nM, I: 83 nM)

###

# test system: glycine transporter-1 (GlyT-1) (Homo sapiens, UniProt P48067)
# Construct: JAR cells (ATCC#HTB-144), which endogenously express GlyT-1; host or cells: JAR human choriocarcinoma cells
# method summary: [14C]glycine uptake assay in JAR cells endogenously expressing GlyT-1 (scintillation proximity)
# Format: cell-based
# condition label: JAR cells, [14C]glycine 5 μM, 3 hour incubation; read-out: GlyT-1 IC50
# Method: The inhibitory activity of compounds of the invention against the glycine transporter-1 (GlyT-1) can be determined by the following scintillation proximity assay. The potency of each compound was assessed in inhibiting the uptake of radiolabeled glycine ([^14C]glycine) using the human choriocarcinoma cell line, JAR cells (ATCC#HTB-144), which endogenously express GlyT-1. […]
Where a name gives a salt, the structure may show the parent alone.
measurement name: IC50 (µM)

a: CCS(=O)(=O)N1CCN(C2(CNC(=O)c3c(F)cc(OC)cc3F)CCC(F)(F)CC2)CC1 [compound 216, Hydrochloride]
b: CCCS(=O)(=O)N1CCN(C2(CNC(=O)c3c(F)cccc3OC(F)F)CCC(F)(F)CC2)CC1 [compound 250, Hydrochloride]
Q) Hey, which is lower on measured IC50, a or b ? # answer = label of selected item
A) b
(b: 0.024 µM, a: 1.29 µM)

1: CCCS(=O)(=O)N1CCN(C2(CNC(=O)c3ccccc3OC)CCC(F)(F)CC2)CC1 [compound 133, Hydrochloride]
2: CCCS(=O)(=O)N1CCN(C2(CNC(=O)c3ccc(C)cc3)CCCCC2)CC1 [compound 25, Hydrochloride]
Q) In the pair 1 and 2 , the larger recorded IC50 belongs to which? # answer = label of selected item
A) 2

P: CCS(=O)(=O)N1CCN(C2(CNC(=O)c3cc(F)c(F)cc3Cl)CCC(F)(F)CC2)CC1 [compound 214, Hydrochloride]
Q: CCCS(=O)(=O)N1CCN(C2(CNC(=O)c3c(Cl)cc(Cl)cc3Cl)CCC(F)(F)CC2)CC1 [compound 260, Hydrochloride]
Q) In the pair P and Q , the larger recorded IC50 belongs to which? # answer = label of selected item
A) P
(P: 0.329 µM, Q: 0.017 µM)

A: CCCS(=O)(=O)N1CCN(C2(CNC(=O)c3ccc(Cl)cc3Cl)CCCC2)CC1 [compound 72, Hydrochloride]
B: CCS(=O)(=O)N1CCN(C2(CNC(=O)c3c(F)ccc(Cl)c3F)CCC(F)(F)CC2)CC1 [compound 213, Hydrochloride]
Q) In the pair A and B , the larger recorded IC50 belongs to which? # answer = label of selected item
A) B

1: CCCS(=O)(=O)N1CCN(C2(CNC(=O)c3ccccc3C)CCC(F)(F)CC2)CC1 [compound 134, Hydrochloride]
2: O=C(NCC1(N2CCN(S(=O)(=O)c3cn(C(F)F)nn3)CC2)CCC(F)(F)CC1)c1ccc(C(F)(F)F)cc1Cl [compound 236, Hydrochloride]
3: Cn1cnc(S(=O)(=O)N2CCN(C3(CNC(=O)c4ccc(C(F)(F)F)cc4F)CCC(F)(F)CC3)CC2)c1 [compound 170, Hydrochloride]
4: CCCS(=O)(=O)N1CCN(C2(CNC(=O)c3ccc(F)cc3F)CCC(F)(F)CC2)CC1 [compound 140, Hydrochloride]
Q) Please put the entries in order of rising IC50. List the labels in the requested order.
A) 3, 2, 1, 4

1: CCCS(=O)(=O)N1CCN(C2(CNC(=O)c3ccccc3C(F)(F)F)CCC(F)(F)CC2)CC1 [compound 132, Hydrochloride]
2: CCCS(=O)(=O)N1CCN(C2(CNC(=O)Cc3ccc(Cl)cc3)CCCCC2)CC1 [compound 13, Hydrochloride]
3: CCCS(=O)(=O)N1CCN(C2(CNC(=O)c3ccc(C4CC4)cc3Cl)CCC(F)(F)CC2)CC1 [compound 247, Hydrochloride]
4: Cn1cnc(S(=O)(=O)N2CCN(C3(CNC(=O)c4c(F)cccc4F)CCCC3)CC2)c1 [compound 104, Hydrochloride]
Q) Ordering criterion: IC50; begin with the maximum. List the labels in the requested order.
A) 2, 4, 1, 3
(2: 1.27 µM, 4: 0.346 µM, 1: 0.064 µM, 3: 0.037 µM)

1: Cn1cnc(S(=O)(=O)N2CCN(C3(CNC(=O)c4c(F)cccc4F)CCCCC3)CC2)c1 [compound 98, Hydrochloride]
2: CCCS(=O)(=O)N1CCN(C2(CNC(=O)c3cc(F)c(F)cc3Cl)CCC(F)(F)CC2)CC1 [compound 264, Hydrochloride]
Q) Hey, which is lower on measured IC50, 1 or 2 ? # answer = label of selected item
A) 1
(1: 0.004 µM, 2: 0.048 µM)

P: Cn1cnc(S(=O)(=O)N2CCN(C3(CNC(=O)c4c(Cl)cccc4C(F)(F)F)CCC(F)(F)CC3)CC2)c1 [compound 185, Hydrochloride]
Q: CCCS(=O)(=O)N1CCN(C2(CNC(=O)c3ccccc3F)CCC(F)(F)CC2)CC1 [compound 131, Hydrochloride]
Q) Hey, which is lower on measured IC50, P or Q ? # answer = label of selected item
A) P

I: CCS(=O)(=O)N1CCN(C2(CNC(=O)c3c(Cl)cc(C(F)(F)F)cc3Cl)CCC(F)(F)CC2)CC1 [compound 207, Hydrochloride]
II: Cn1cnc(S(=O)(=O)N2CCN(C3(CNC(=O)c4ccccc4C(F)(F)F)CCC(F)(F)CC3)CC2)c1 [compound 176, Hydrochloride]
Q) In the pair I and II , the larger recorded IC50 belongs to which? # answer = label of selected item
A) I
(I: 0.064 µM, II: 0.003 µM)

###

# test system: glycine transporter-1 (GlyT-1) (Homo sapiens)
# Construct: JAR cells (ATCC#HTB-144), which endogenously express GlyT-1; host or cells: JAR human choriocarcinoma cells
# method summary: [14C]glycine uptake assay in JAR cells endogenously expressing GlyT-1 (scintillation proximity)
# Assay type: cell-based
# condition label: JAR cells, [14C]glycine 5 μM, 3 hour incubation; read-out: GlyT-1 IC50
pIC50: −log10 of the molar value. Where a name gives a salt, the structure may show the parent alone.
measurement name: pIC50

- compound: "Cn1cc(S(=O)(=O)N2CCN(C3(CNC(=O)c4ccc(F)cc4F)CCC(F)(F)CC3)CC2)nn1 [compound 229, Hydrochloride]"
  test system: "glycine transporter-1 (GlyT-1) (Homo sapiens)"
  measurement name: "pIC50"
  reported: 8.00

a: Cn1cnc(S(=O)(=O)N2CCN(C3(CNC(=O)c4c(F)cccc4Cl)CCC(F)(F)CC3)CC2)c1 [compound 180, Hydrochloride]
b: Cc1cc(F)ccc1C(=O)NCC1(N2CCN(S(=O)(=O)c3cn(C)cn3)CC2)CCC(F)(F)CC1 [compound 184, Hydrochloride]
Q) In the pair a and b , the larger recorded pIC50 belongs to which? # answer = label of selected item
A) a
(a: 8.10, b: 7.89)
